The reported measurements were obtained from PubChem BioAssay.

- procedure-summary: JC-1 mitochondrial signal, unstimulated myeloma cells – cell-based, JC-1 fluorescence, RPMI8226, 24 h, 100 nL compound, profiling panel (AID 1169); further: test concentration not given here
- condition-parameters: JC-1 mitochondrial potential fluorescence, higher = more signal
quantity-measured: z-score
Answers are plain numbers.

Past entries and their recorded results:
Query: Consider the molecule CCCCCCc1nc(-c2ccc(-c3ccc(Cl)c(Cl)c3)o2)cc2c1[Si](C(C)C)(C(C)C)O[C@H]2c1ccccc1 and give its recorded z-score.
Result: 0.278

Query: Consider the molecule O=C1O[C@H](c2ccccc2)[C@H](c2ccccc2)N2[C@H]1[C@@H](C(=O)N1CCN(c3ncccn3)CC1)[C@]1(C(=O)Nc3ccc(C#CC4=CCCCC4)cc31)[C@H]2c1ccccc1OCCO and give its recorded z-score.
Result: -1.18

Query: Consider the molecule C[C@H]1C2[C@H](Cc3ccccc3)NC(=O)[C@]23C(=O)NCC(=O)N2CCC[C@H]2C(=O)NC/C=C/CCC/C=C/C3[C@@H]2O[C@]12C (some centres undefined) and give its recorded z-score.
Result: -0.877

Query: Consider the molecule COC(=O)c1c2oc(c1C(=O)OC)C(=O)NC1(CCCCC1)c1cn(nn1)C[C@H](Cc1ccccc1)NC(=O)N[C@H](CO)CC2 and give its recorded z-score.
Result: 0.564

Query: Consider the molecule O=C1OCC=C[C@H]2OC34C=CCN(Cn5nnc6ccccc65)C(=O)[C@H]3N(CCCCCO)C(=O)[C@@H]4[C@@H]12 (some centres undefined) and give its recorded z-score.
Result: 0.205

Query: Consider the molecule C=C(C(=O)CC[C@H](OC(C)=O)c1ccccc1OCCO)C(C)C and give its recorded z-score.
Result: -0.621

The following molecules each have a reported value; give each one's z-score.
1. CC[C@@H]1C=C(C(=O)O)[C@H](c2cccc3ccccc23)N1S(=O)(=O)c1ccc(C)cc1
2. C=CCNC(=O)[C@@H]1[C@H]2C(=O)O[C@H](c3ccccc3)[C@H](c3ccccc3)N2[C@H](c2ccc(OCCO)cc2)[C@@]12C(=O)N(C(=O)OCCOC)c1ccc(C#CCNC(N)=O)cc12
3. C=CCOC(=O)[C@H]1[C@@H]2C(=O)O[C@@H](c3ccccc3)[C@@H](c3ccccc3)N2[C@@H](c2ccc(OCCOC(=O)[C@H]3C[C@H]4C(=O)N[C@@H](CCCCN(C)C)C(=O)N4[C@H]3c3cccc(OCCO)c3)cc2)[C@]12C(=O)Nc1ccc(I)cc12

Result:
1.17
-0.888
-0.157

The following molecules each have a reported value; give each one's z-score.
1. CCCC=C(CCC)[C@@H](NS(=O)(=O)c1ccc(Cl)cc1)c1ccc(C(=O)OC)cc1
2. CC(=O)n1cc(C(O)C2C=CC3C(=O)NC(=O)C3N2Nc2ccccn2)c2ccccc21 (centres undefined)
3. O=C(O)[C@@]1(CCS(=O)(=O)c2ccccc2)N=C(c2ccc(OCCCO)cc2)O[C@H]1c1ccccc1
4. C=CC[C@]1(C(N)=O)N=C(c2ccc(OCCCO)cc2)O[C@H]1c1ccccc1
5. COCCCNC(=O)[C@@]1(CCS(=O)(=O)c2ccccc2)N=C(c2ccc(OCCCO)cc2)O[C@H]1c1ccccc1N=[N+]=[N-]

Result:
1: -0.906; 2: 0.634; 3: -0.178; 4: -0.414; 5: -0.938
